These data points were gathered from ChEMBL document CHEMBL4177533.

Tested on: 8505C
Assay: Cytotoxicity against human 8505C cells assessed as reduction in cell viability incubated for 72 hrs by Cell-titer 96 aqueous one assay
Format: functional, cell-based
Conditions: 8505c
Observation type: pIC50
One number for each entry, as −log10 of the molar value.

Query: Supply measured pIC50 of CCCCCCC[C@H](CCCCCCCCCC[C@H](O)[C@H](O)CC[C@H](O)[C@H](O)CCOC[C@H](O)CO)OC(C)=O (stereo in doubt; form 2) in your reply.
Result: 5.68

----------
Assay: Cytotoxicity against human ACT1 cells assessed as reduction in cell viability incubated for 72 hrs by Cell-titer 96 aqueous one assay
Type: functional, cell-based
Observation type: pIC50
One number for each entry, as −log10 of the molar value.

Query: Using the record for CCCCCCC[C@H](CCCCCCCCCC[C@H](O)[C@H](O)CC[C@H](O)[C@H](O)CCOC[C@H](O)CO)OC(C)=O (stereo in doubt; form 2) , state its measured pIC50.
Result: 5.29
